assay: in vitro; details: human, microsomes, pH 7.4
QUANTITY KIND: microsomal CLint at 1 μM (µL/min/mg)

1) [2H]C([2H])([2H])N1CCC[C@H]1COc1nc2c(c(N3CCN(C(=O)C=C)[C@@H](CC#N)C3)n1)CCN(c1cccc3cccc(C)c13)C2 [Compound 42]: 51

(P) [2H]C([2H])([2H])N1CCC[C@H]1COc1nc2c(c(N3CCN(C(=O)C(=C)F)[C@@H](CC#N)C3)n1)CCN(c1cccc3cccc(Cl)c13)C2 [Compound 18]
(Q) [2H]C([2H])([2H])c1cccc2cccc(N3CCc4c(nc(OC[C@@H]5CCCN5C)nc4N4CCN(C(=O)C=C)[C@@H](CC#N)C4)C3)c12 [Compound 1]
Query: Identify the entry with the smaller microsomal CLint at 1 μM: P or Q . Bench note: the answer is the label of the chosen record.
Response: Q

====

test: Stability test in human plasma; conditions: human plasma, 37° C., 60 min
QUANTITY KIND: Remaining percentage (%) 60 min

1. [2H]C([2H])([2H])N1CCC[C@H]1COc1nc2c(c(N3CCN(C(=O)C=C)[C@@H](CC#N)C3)n1)CCN(c1cccc3cccc(C)c13)C2: 77.31
2. [2H]C([2H])([2H])c1cccc2cccc(N3CCc4c(nc(OC[C@@H]5CCCN5C([2H])([2H])[2H])nc4N4CCN(C(=O)C=C)[C@@H](CC#N)C4)C3)c12: 92.97

(1) CC(C)[N+](C)(CCOC(=O)C1c2ccccc2Oc2ccccc21)C(C)C [Propantheline Bromide, reference compound]
(2) [2H]C([2H])([2H])c1cccc2cccc(N3CCc4c(nc(OC[C@@H]5CCCN5C)nc4N4CCN(C(=O)C=C)[C@@H](CC#N)C4)C3)c12
Query: Compare reported Remaining percentage (%) 60 min values for 1 and 2 . Which is lower? Mark your answer with the label of the selected entry.
Response: 1
(1: 7.71%, 2: 76.27%)

====

assay: Stability test in human plasma; settings: human plasma, 37° C., 180 min
QUANTITY KIND: Remaining percentage (%) 180 min

(a) [2H]C([2H])([2H])c1cccc2cccc(N3CCc4c(nc(OC[C@@H]5CCCN5C([2H])([2H])[2H])nc4N4CCN(C(=O)C=C)[C@@H](CC#N)C4)C3)c12 [Compound 17]
(b) [2H]C([2H])([2H])N1CCC[C@H]1COc1nc2c(c(N3CCN(C(=O)C=C)[C@@H](CC#N)C3)n1)CCN(c1cccc3cccc(C)c13)C2 [Compound 42]
Query: Hello, I am sorting some records. Could you say if a or b has the smaller Remaining percentage (%) 180 min value? Answer = label.
Response: b

====

Experiment: in vitro
Conditions: human, microsomes, pH 7.4
Description: To examine the in vitro metabolic stability of the test compounds in liver microsomes of different species, representative compounds were selected, and their stability was evaluated by measuring the concentration of the test compounds in the incubation system using LC/MS/MS and calculating their intrinsic clearance in the microsome system. […] The slope value (k) was determined by linear fitting of the natural logarithm of drug elimination percentage over time.
QUANTITY KIND: half-life at 1 μM (min)

Example entries and their recorded answers appear below.
1) [2H]C([2H])([2H])N1CCC[C@H]1COc1nc2c(c(N3CCN(C(=O)C=C)[C@@H](CC#N)C3)n1)CCN(c1cccc3cccc(Cl)c13)C2 [Compound 41]: 26
2) C=C(F)C(=O)N1CCN(c2nc(OC[C@@H]3CCCN3C)nc3c2CCN(c2cccc4cccc(Cl)c24)C3)C[C@@H]1CC#N [MRTX849, reference compound]: 19.8

(I) [2H]C([2H])([2H])N1CCC[C@H]1COc1nc2c(c(N3CCN(C(=O)C(=C)F)[C@@H](CC#N)C3)n1)CCN(c1cccc3cccc(Cl)c13)C2 [Compound 18]
(II) [2H]C([2H])([2H])c1cccc2cccc(N3CCc4c(nc(OC[C@@H]5CCCN5C)nc4N4CCN(C(=O)C=C)[C@@H](CC#N)C4)C3)c12 [Compound 1]
Query: Between the entries labeled I and II , whose measured half-life at 1 μM is lower? Answer = label.
Response: I
(I: 19.3 min, II: 29.3 min)
